Source of measurements: ChEMBL document CHEMBL2218924

Target: Mitogen-activated protein kinase 10 (Homo sapiens) (UniProt P53779)
Sequence (P53779 whole entry): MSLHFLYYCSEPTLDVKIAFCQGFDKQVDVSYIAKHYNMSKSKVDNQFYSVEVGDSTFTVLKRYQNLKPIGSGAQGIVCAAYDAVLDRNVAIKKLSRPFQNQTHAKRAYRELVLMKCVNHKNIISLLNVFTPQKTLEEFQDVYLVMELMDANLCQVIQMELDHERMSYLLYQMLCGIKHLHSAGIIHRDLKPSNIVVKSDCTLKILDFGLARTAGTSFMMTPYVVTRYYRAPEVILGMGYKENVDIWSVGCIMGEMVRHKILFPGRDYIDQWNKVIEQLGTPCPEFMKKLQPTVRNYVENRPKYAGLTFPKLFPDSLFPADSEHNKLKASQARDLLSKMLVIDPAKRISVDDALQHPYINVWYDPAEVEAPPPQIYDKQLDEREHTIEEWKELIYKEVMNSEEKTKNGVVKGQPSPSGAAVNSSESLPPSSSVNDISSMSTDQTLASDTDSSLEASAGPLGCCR
Conditions: at 1 µM
Lab note: anything with residual activity below 50% is marked true; values at 50% or higher are marked false.

# smilesData, classification
data = [
    ("O=C1Cc2c([nH]c3ccc([N+](=O)[O-])cc23)-c2ccccc2N1", "false"),
    ("O=c1cc(N2CCOCC2)oc2c(-c3ccccc3)cccc12", "false"),
    ("Nc1ncnc2[nH]nc(Nc3ccc(F)cc3)c12", "false"),
    ("c1ccc(-c2cnc(Nc3ccc(OCCN4CCCC4)cc3)s2)cc1", "false"),
    ("Cn1sc(=O)n(Cc2ccccc2)c1=O", "false"),
    ("CCOc1nc(NC(=O)Cc2cc(OC)ccc2OC)cc(N)c1C#N", "true"),
    ("CCCCc1c(-c2ccc(OC)cc2)[nH]c2nccnc12", "true"),
    ("Fc1ccc(-c2nc3n(c2-c2ccncc2)CCS3)cc1", "true"),
    ("Nc1nccc(-c2c(-c3ccc(F)cc3)ncn2C2CCNCC2)n1", "false"),
    ("COc1ccc2c(c1)c(C1=C(c3c[nH]c4ccccc34)C(=O)NC1=O)cn2CCCN(C)C", "false"),
]
